Reported kinase still bound, per cent of control values for the following molecules.
TARGET_UNDER_TEST: RPS6KA4 KD1 (human)
ASSAY_SUMMARY: KINOMEscan competition binding
SETUP_CONDITIONS: compound 10.0 µM
Hi, when you answer, please include the unit after the number. Thanks!

CS(=O)(=O)N1CCN(Cc2cc3nc(-c4cccc5[nH]ncc45)nc(N4CCOCC4)c3s2)CC1 100%
CNC(=O)c1ccc(Nc2cc(Nc3ccccc3S(=O)(=O)C(C)C)c3cc[nH]c3n2)nc1 2.2%

Please turn your attention to the following entry.
Tell me the measured kinase still bound, per cent of control of COc1cc(C(=O)N2CCC(N3CCN(C)CC3)CC2)ccc1Nc1ncc2c(n1)N(C)c1ccccc1C(=O)N2C , please.
100%

* * *

TARGET_UNDER_TEST: CDK13 (human)
ASSAY_SUMMARY: KINOMEscan competition binding
SETUP_CONDITIONS: compound 10.0 µM
MEASURED_QUANTITY: kinase still bound, per cent of control (%)
Number only, in %; omit the unit.

N#CCNC(=O)c1ccc(-c2ccnc(Nc3ccc(N4CCOCC4)cc3)n2)cc1 91
CCN1CCN(C(=O)Cc2ccc(Nc3ncc(F)c(Nc4ccc(C(=O)Nc5ccccc5Cl)cc4)n3)cc2)CC1 100
COc1cc(C(=O)N2CCC(N3CCN(C)CC3)CC2)ccc1Nc1ncc2c(n1)N(C)c1ccccc1C(=O)N2C 100

Please give the measured kinase still bound, per cent of control for this molecule: CNC(=O)c1cc(Oc2ccc(NC(=O)Nc3ccc(Cl)c(C(F)(F)F)c3)cc2)ccn1
86

Please answer likewise for O=C(Nc1cccc(Nc2ncc(Br)c(NCCc3cnc[nH]3)n2)c1)N1CCCC1
0.35

Note, next up: COc1cc2ncnc(-n3nc(-c4ccccn4)nc3N)c2cc1OC
17

* * *

TARGET_UNDER_TEST: RPS6KA3 KD1 (human) (UniProt P51812)
Sequence (P51812 whole entry, looked up): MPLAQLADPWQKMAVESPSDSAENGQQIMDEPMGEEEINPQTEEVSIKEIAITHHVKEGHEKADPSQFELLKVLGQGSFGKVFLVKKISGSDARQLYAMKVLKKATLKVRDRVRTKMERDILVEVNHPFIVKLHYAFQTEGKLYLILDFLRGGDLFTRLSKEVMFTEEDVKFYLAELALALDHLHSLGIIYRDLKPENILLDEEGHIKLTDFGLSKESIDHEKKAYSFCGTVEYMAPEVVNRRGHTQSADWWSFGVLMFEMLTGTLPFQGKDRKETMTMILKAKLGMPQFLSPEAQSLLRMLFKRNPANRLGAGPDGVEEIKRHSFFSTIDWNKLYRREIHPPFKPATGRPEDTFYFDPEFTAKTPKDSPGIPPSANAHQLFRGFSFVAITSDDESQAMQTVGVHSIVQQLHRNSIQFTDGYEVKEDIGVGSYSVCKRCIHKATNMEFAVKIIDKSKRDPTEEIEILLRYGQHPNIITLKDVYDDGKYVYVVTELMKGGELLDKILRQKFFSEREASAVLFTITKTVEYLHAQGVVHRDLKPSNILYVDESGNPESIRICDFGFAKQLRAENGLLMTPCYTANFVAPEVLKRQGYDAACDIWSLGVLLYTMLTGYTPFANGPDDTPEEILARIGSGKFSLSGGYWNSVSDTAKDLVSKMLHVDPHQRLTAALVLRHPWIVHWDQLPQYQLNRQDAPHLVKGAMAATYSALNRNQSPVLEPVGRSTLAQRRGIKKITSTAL
ASSAY_SUMMARY: KINOMEscan competition binding
SETUP_CONDITIONS: compound 10.0 µM
MEASURED_QUANTITY: kinase still bound, per cent of control (%)
Report only the number, with the unit % understood.

Consider the following illustrative entries.
C=CC(=O)Nc1cc(-n2c(=O)ccc3cnc4ccc(-c5cn[nH]c5)cc4c32)ccc1C 69
COCC(=O)NC/C=C/c1ccc2ncnc(Nc3ccc(Oc4ccc(C)nc4)c(C)c3)c2c1 92
O=C(Nc1cccc(Nc2ncc(Br)c(NCCc3cnc[nH]3)n2)c1)N1CCCC1 0.5
CNC(=O)c1ccc(Nc2cc(Nc3ccccc3S(=O)(=O)C(C)C)c3cc[nH]c3n2)nc1 25

Lab request: please report kinase still bound, per cent of control under test system RPS6KA3 KD1 (human) (UniProt P51812) for COc1cc2ncn(-c3cc(OCc4ccccc4C(F)(F)F)c(C(N)=O)s3)c2cc1OC
22

* * *

Below, each entry is listed with its recorded kinase still bound, per cent of control.
TARGET_UNDER_TEST: DCLK3 (human) (UniProt Q9C098)
Sequence (Q9C098 whole entry, looked up): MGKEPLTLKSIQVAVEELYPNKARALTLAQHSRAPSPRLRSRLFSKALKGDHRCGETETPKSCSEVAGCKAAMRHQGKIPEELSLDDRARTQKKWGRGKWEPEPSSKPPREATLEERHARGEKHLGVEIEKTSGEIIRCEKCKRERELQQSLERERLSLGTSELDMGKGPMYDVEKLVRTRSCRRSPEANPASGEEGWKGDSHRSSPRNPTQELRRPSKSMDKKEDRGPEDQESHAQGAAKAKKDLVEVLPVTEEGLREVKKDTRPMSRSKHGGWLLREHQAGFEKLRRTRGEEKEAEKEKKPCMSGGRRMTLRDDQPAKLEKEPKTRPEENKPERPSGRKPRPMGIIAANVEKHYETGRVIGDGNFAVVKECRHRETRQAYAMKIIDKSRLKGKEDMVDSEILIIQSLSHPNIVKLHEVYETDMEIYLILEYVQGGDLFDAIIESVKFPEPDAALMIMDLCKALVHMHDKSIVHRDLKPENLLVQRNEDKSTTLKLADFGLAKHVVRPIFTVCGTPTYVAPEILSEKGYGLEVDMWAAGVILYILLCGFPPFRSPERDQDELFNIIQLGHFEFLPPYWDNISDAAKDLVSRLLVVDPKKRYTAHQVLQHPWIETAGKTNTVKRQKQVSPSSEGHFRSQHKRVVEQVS
ASSAY_SUMMARY: KINOMEscan competition binding
SETUP_CONDITIONS: compound 10.0 µM

Illustrative cases are given below, each with its answer.
COc1cc2ncnc(-n3nc(-c4ccccn4)nc3N)c2cc1OC 100%
Cc1n[nH]c2ccc(-c3cncc(OC[C@@H](N)Cc4c[nH]c5ccccc45)c3)cc12 2%
C[C@@H](Oc1cc(-c2cnn(C3CCNCC3)c2)cnc1N)c1c(Cl)ccc(F)c1Cl 42%
COc1cc2ncn(-c3cc(OCc4ccccc4C(F)(F)F)c(C(N)=O)s3)c2cc1OC 100%
CNC(=O)c1cc(Oc2ccc(NC(=O)Nc3ccc(Cl)c(C(F)(F)F)c3)cc2)ccn1 75%
C=CC(=O)Nc1cc(-n2c(=O)ccc3cnc4ccc(-c5cn[nH]c5)cc4c32)ccc1C 100%
O=C(Nc1cccc(Nc2ncc(Br)c(NCCc3cnc[nH]3)n2)c1)N1CCCC1 48%
NC(=O)Nc1cc(-c2cccc(F)c2)sc1C(=O)N[C@@H]1CCCNC1 56%

Given the compound COCC(=O)NC/C=C/c1ccc2ncnc(Nc3ccc(Oc4ccc(C)nc4)c(C)c3)c2c1 , what is its reported kinase still bound, per cent of control?
83%

Repeat with O=c1cc(N2CCOCC2)oc2c(-c3cccc4c3sc3ccccc34)cccc12
100%
